Reported log10 of IC50 values for the following molecules.
Target Of Assay: UniProtKB P50613
Sequence (P50613 whole entry): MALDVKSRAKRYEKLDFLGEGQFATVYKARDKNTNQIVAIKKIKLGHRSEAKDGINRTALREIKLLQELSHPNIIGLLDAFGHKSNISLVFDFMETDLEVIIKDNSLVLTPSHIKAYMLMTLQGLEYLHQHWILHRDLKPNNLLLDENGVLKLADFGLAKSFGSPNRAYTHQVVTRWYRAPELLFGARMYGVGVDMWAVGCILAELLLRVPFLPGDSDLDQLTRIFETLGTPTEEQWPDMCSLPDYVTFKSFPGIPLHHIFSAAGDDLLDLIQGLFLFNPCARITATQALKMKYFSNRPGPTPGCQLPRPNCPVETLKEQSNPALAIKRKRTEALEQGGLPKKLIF
Test Details: NanoBRET live-cell target engagement, NanoLuc-CDK7 in HEK-293
Type: binding
Cond: CDK7; average (± SEM where n=3); read-out: IC50
Remember, log10 of IC50, in nM.

Here is how some molecules turned out for log10 of IC50.
[[record]]
molecule = "CC(C)c1c2cc(-c3ccnc(N[C@H]4CC[C@H](NC5CCOCC5)CC4)n3)ccc2nn1C [LY2857785]"
measurement = 1.49

[[record]]
molecule = "COc1ccc(F)cc1-c1cc(NC(=O)C2CCCNC2)ncc1Cl (stereo not shown) [CDK inhibitor 2]"
measurement = 2.08

[[record]]
molecule = "N#CCNC(=O)c1ccc(-c2ccnc(Nc3ccc(N4CCOCC4)cc3)n2)cc1 [Momelotinib]"
measurement = 2.91


Lab note: CC(C)c1cnn2c(NCc3ccccc3-n3cccn3)nc(OC3CCCNC3)nc12 (stereo not shown) [LDC4297] gave log10 of IC50 of 1.34

For record CN1CCN(c2ccc(Nc3ncc4cc(C#N)c(=O)n(C5CCCC5)c4n3)cc2)CC1 [ON123300] the listed log10 of IC50 is 2.16

// log10 of IC50 value for CS(=O)(=O)N1CCC(NC(=O)c2[nH]ncc2NC(=O)c2c(Cl)cccc2Cl)CC1 [NVP-LCQ195] : 1.84

Memo: CCn1cnc2c(Nc3cccc(Cl)c3)nc(N[C@@H]3CCCC[C@@H]3N)nc21 [CGP74514A] , reported log10 of IC50: 1.98

---

Target Of Assay: CDK15/Cyclin Y (Homo sapiens, UniProt Q96Q40)
Sequence (Q96Q40 whole entry): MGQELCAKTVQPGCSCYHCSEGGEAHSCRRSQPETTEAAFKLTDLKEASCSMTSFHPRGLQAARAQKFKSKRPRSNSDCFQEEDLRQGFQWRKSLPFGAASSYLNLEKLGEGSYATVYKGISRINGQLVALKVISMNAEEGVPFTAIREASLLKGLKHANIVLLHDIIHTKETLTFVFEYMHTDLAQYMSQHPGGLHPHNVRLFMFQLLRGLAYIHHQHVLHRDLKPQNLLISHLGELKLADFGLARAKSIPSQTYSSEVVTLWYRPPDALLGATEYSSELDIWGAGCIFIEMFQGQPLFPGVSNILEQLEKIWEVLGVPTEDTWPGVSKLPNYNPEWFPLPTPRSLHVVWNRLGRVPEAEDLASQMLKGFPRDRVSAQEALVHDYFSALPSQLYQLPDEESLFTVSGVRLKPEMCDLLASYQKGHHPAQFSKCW
Sequence (Q8ND76 whole entry partner): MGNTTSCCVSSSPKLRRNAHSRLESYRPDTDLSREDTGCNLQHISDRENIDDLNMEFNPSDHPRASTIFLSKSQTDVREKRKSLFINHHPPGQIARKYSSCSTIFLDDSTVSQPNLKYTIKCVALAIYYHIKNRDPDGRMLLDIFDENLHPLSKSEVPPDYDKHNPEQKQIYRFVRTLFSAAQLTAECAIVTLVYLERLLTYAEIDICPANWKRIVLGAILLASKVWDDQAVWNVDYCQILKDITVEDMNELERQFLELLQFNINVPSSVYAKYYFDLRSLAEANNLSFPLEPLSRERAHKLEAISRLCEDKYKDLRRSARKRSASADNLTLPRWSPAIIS
Test Details: NanoBRET live-cell target engagement, NanoLuc-CDK15/Cyclin Y in HEK-293
Format: binding
Cond: CDK15/Y; experiment 2
Result Type: Inhibition at 10µM (%)
Hi! Could you send only the number? It should be in %, unit omitted.

// worked examples, Inhibition at 10µM (%) included
[[record]]
molecule = "CS(=O)(=O)N1CCC(NC(=O)c2[nH]ncc2NC(=O)c2c(Cl)cccc2Cl)CC1"
target_of_assay = "CDK15/Cyclin Y (Homo sapiens, UniProt Q96Q40)"
measurement = 91.9

[[record]]
molecule = "CN1CCC(c2c(O)cc(O)c3c(=O)cc(-c4ccccc4Cl)oc23)C1CO (stereo not drawn)"
target_of_assay = "CDK15/Cyclin Y (Homo sapiens, UniProt Q96Q40)"
measurement = 23.7

[[record]]
molecule = "CCn1cnc2c(Nc3cccc(Cl)c3)nc(N[C@@H]3CCCC[C@@H]3N)nc21 [CGP74514A]"
target_of_assay = "CDK15/Cyclin Y (Homo sapiens, UniProt Q96Q40)"
measurement = 86.4

[[record]]
molecule = "CC(C)c1c2cc(-c3ccnc(N[C@H]4CC[C@H](NC5CCOCC5)CC4)n3)ccc2nn1C"
target_of_assay = "CDK15/Cyclin Y (Homo sapiens, UniProt Q96Q40)"
measurement = 93.9

[[record]]
molecule = "CC(C)c1cnn2c(NCc3ccccc3-n3cccn3)nc(OC3CCCNC3)nc12 (stereo not drawn)"
target_of_assay = "CDK15/Cyclin Y (Homo sapiens, UniProt Q96Q40)"
measurement = 95.3


CNc1nc(C)c(-c2nc(Nc3cccc(S(N)(=O)=O)c3)ncc2F)s1 has a reported Inhibition at 10µM (%) of 92.2
